The measurements presented in this section are drawn from PubChem BioAssay (NCI).

Tested on: 786-0 renal
test_summary: NCI tumour cell line growth inhibition, 48 h
readout_kind: TGI (µM)
Provide the reading as a plain figure in µM.

# annotated cases, reported TGI shown
Record Cc1nc(Nc2ccc(Cl)cc2)sc1C(=O)Nc1cccc2c(=O)[nH][nH]c(=O)c12 , field TGI: 47.9

TGI measured on COc1ccc(/C=C(\C#N)c2cc(OC)c(OC)c(OC)c2)cc1 = 34.6

Below: the item to evaluate.
Reported TGI ( CN(C)C(=S)/N=c1\ssc(=Nc2ccccc2)n1-c1ccccc1 ) = 37.1

---

Test system: LXFL 529 NSCLC
test_summary: NCI tumour cell line growth inhibition, 48 h
Each entry below carries its recorded TGI.

A selection of reference data follows.
The compound c1ccc(N2CCN(CCN3CCc4c([nH]c5ccccc45)C3c3cccnc3)CC2)cc1 (centres undefined) , tested on LXFL 529 NSCLC, showed TGI of > 100 µM

Hey, LXFL 529 NSCLC data for CCNC(=O)COc1ccc(Cl)c(C)c1 : TGI came out at > 100 µM

For the compound O=C(Nc1ccccc1)N1C(c2ccccc2)=N[C@@H](c2ccccc2)[C@@H]1c1ccccc1 , the measured TGI on LXFL 529 NSCLC was 31.6 µM

LXFL 529 NSCLC assay, compound O=C(Cc1nc2ccccc2s1)C(=O)Nc1cccc(C(F)(F)F)c1 , recorded TGI = > 100 µM

# O=S1(=O)CCC2=CC(C(F)(F)F)=CC(C(F)(F)F)=CN21 with LXFL 529 NSCLC: TGI is 1.6 µM

---
Readout TGI for O=C1N=C2N=C(c3ccc(Cl)cc3)N(c3ccc(Cl)cc3)N2Sc2ccccc21 , test system LXFL 529 NSCLC, was > 100 µM

The reported LXFL 529 NSCLC TGI of COC1CCC(CO)OO1 (centres undefined) is > 100 µM

Param item: COC(OC)c1cccnc1C ; param system: LXFL 529 NSCLC; output TGI: > 100 µM

Bench note, LXFL 529 NSCLC: CCOC(=N)CC(=O)Nc1ccccc1CC , TGI reads > 100 µM

TGI value, target or system LXFL 529 NSCLC, for NCCOCCOCC(=O)O : > 100 µM

Kindly note: LXFL 529 NSCLC, O=c1[nH]c(=S)[nH]c2c1CCCN2 , TGI value reported: > 100 µM

LXFL 529 NSCLC data for O=C1C(=O)N(c2cc(Cl)ccc2Cl)C(=O)C(=O)C1c1nc2ccccc2s1 ; its TGI: > 100 µM

Entry CC(NC1CCCC[C@@H]1O)c1ccccc1 (some centres undefined) , tested on LXFL 529 NSCLC, has a reported TGI of > 100 µM

Record for COc1ccccc1/C=C(\NC(=O)c1ccccc1)c1nc2ccccc2[nH]1 under target or system LXFL 529 NSCLC: TGI reported as 96.9 µM
